# System: PPARg:RXRa IVT, anti-PPARg (NR concentration 270 nM, RXRa partner concentration 90 nM)
# PROCEDURE_SUMMARY: PBM binding z-score (relative to random genomic background probes); higher = stronger binding; sequences stand for … in GC…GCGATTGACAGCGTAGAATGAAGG
PBM binding z-score reference
QUANTITY_MEASURED: PBM binding z-score

1. AATACAGGGTCACTGGGCCAGAGTAGGTACGAAT :: 5.96
2. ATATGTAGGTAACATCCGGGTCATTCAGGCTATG :: 7.04
3. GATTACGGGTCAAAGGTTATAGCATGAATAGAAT :: 6.61
4. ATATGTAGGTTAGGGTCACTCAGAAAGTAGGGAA :: 6.76
5. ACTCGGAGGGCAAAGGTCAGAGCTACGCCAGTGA :: 4.71
6. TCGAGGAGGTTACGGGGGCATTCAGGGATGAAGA :: 5.82
7. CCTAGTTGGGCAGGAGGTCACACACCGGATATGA :: 2.59
8. CCCAGTAGGTTACGAGGGGGCATTCAGTGCGAAT :: 5.49
9. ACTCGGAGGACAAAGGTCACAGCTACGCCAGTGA :: 4.71
10. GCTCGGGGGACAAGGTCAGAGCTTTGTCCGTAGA :: 3.25
11. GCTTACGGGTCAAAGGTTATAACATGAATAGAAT :: 5.8
12. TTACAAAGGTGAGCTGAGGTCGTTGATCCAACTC :: 2.58

* * *

PBM binding z-score reference
# System: THRa homodimer (NR concentration 90 nM)
# PROCEDURE_SUMMARY: PBM binding z-score (relative to random genomic background probes); higher = stronger binding; sequences stand for … in GC…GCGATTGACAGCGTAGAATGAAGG
QUANTITY_MEASURED: PBM binding z-score

1) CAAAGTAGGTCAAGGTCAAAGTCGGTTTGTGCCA :: 3.66
2) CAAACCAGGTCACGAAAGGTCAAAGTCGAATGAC :: 3.86
3) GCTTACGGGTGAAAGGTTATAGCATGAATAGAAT :: 0.0422
4) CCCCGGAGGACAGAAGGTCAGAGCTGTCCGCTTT :: 0.211
5) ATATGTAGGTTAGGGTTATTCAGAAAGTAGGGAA :: 1.52
6) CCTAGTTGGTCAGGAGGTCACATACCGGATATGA :: 2.13
7) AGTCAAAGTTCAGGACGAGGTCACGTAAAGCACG :: 4.95
8) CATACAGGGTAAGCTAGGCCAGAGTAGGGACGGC :: -0.191
9) CGAACTAGGTCAAAGGTCAGTGAAAGGCGACGTA :: 1.2
10) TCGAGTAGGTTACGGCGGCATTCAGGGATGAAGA :: -0.386
11) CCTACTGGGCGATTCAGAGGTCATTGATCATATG :: 0.887
12) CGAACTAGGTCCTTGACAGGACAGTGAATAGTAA :: -0.275

* * *

# Tested on: RARg homodimer (NR concentration 270 nM)
# PROCEDURE_SUMMARY: PBM binding z-score (relative to random genomic background probes); higher = stronger binding; sequences stand for … in GC…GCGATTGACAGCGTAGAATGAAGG
QUANTITY_MEASURED: PBM binding z-score

1) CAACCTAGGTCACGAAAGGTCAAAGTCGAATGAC :: 8.53
2) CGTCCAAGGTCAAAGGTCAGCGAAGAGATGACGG :: 8.41
3) AGTCAAAGTTCAGGACGAGGTAAAGTAAAGCACG :: 4.51
4) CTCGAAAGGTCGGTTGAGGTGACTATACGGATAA :: 2.85
5) CAAACTAGGTCACCGGGAGGTCAAAGTCCGCATG :: 7.68

* * *

PBM binding z-score reference
# Test system: RARg homodimer (NR concentration 270 nM)
# PROCEDURE_SUMMARY: PBM binding z-score (relative to random genomic background probes); higher = stronger binding; sequences stand for … in GC…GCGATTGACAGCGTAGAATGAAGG
QUANTITY_MEASURED: PBM binding z-score

1) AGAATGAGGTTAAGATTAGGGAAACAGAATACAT :: 1.56
2) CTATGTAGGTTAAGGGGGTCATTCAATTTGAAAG :: 3.88
3) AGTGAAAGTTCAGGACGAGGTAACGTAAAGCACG :: 4.38
4) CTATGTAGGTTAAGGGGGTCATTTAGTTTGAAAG :: 3.66
5) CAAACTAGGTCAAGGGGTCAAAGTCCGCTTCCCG :: 7.19
6) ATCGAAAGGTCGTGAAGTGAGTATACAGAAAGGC :: 3.56
7) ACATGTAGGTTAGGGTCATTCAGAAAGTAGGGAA :: 3.32
8) TATACTGGGTCAAAGGCCAGAGTACGAATGTCGA :: 3.88
9) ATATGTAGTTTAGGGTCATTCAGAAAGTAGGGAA :: 2.73
10) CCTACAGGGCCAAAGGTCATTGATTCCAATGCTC :: 5.66
11) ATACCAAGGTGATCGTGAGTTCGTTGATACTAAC :: 0.338
12) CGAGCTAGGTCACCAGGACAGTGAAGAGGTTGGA :: 5.39

* * *

# System: RXRa DBDmut IVT, anti-RXR (DBD mutation: RXRa K156A/R161A, NR concentration 90 nM)
# PROCEDURE_SUMMARY: PBM binding z-score (relative to random genomic background probes); higher = stronger binding; sequences stand for … in GC…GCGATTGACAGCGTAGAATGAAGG
QUANTITY_MEASURED: PBM binding z-score

1) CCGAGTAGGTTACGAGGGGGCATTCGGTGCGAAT :: 0.865
2) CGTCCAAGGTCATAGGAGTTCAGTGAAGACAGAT :: 4.22
3) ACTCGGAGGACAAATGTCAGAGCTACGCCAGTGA :: 0.614
4) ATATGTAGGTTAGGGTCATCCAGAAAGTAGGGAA :: 2.19
5) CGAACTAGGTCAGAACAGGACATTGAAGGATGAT :: 0.96
6) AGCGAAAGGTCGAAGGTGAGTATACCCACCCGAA :: 0.876
7) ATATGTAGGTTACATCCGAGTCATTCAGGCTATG :: 0.858
8) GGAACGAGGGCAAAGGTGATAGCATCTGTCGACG :: 2.07
9) CGAACTAGGTCAAAGGGCAGTGAAAGGCGACGTA :: 1.65
10) CTCGAAAGGTGGTGCTCAGGTGAGTATACCAAAC :: -0.443
11) CTATGTAGGTTAAGGGGGTAATTCAGTTTGAAAG :: 1.27
12) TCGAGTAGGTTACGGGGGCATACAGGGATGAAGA :: 1.44

* * *

# Test system: FXR:RXRa (NR concentration 270 nM, RXRa partner concentration 90 nM)
# PROCEDURE_SUMMARY: PBM binding z-score (relative to random genomic background probes); higher = stronger binding; sequences stand for … in GC…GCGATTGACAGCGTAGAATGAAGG
QUANTITY_MEASURED: PBM binding z-score

1) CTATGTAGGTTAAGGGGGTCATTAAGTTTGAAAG :: 4.76
2) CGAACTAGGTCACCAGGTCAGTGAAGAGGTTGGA :: 4.69
3) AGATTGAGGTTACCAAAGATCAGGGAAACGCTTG :: 2.33
4) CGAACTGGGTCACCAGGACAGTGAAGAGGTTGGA :: 3.32
5) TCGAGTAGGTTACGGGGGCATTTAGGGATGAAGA :: 3.13
6) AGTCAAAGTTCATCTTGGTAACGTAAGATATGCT :: 6.87
7) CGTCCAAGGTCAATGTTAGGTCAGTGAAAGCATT :: 6.44
8) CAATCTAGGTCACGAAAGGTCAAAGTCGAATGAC :: 7.83
9) TAGCCTAGGTCCTTCAGGGGCCAGTATAGAAAGC :: -0.77
10) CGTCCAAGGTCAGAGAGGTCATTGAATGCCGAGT :: 6.84
11) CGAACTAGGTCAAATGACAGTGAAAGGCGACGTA :: 4.96
12) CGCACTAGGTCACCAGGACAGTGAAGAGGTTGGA :: 3.84

* * *

# Tested on: PPARg:RXRa DBDmut IVT, anti-RXR (DBD mutation: RXRa K156A/R161A, NR concentration 270 nM, RXRa partner concentration 90 nM)
# PROCEDURE_SUMMARY: PBM binding z-score (relative to random genomic background probes); higher = stronger binding; sequences stand for … in GC…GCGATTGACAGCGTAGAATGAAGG
Binary classification by PBM binding z-score, with 4 as an inclusive lower bound for Criterion met; all other cases are Criterion not met.

1) CGAACTAAGTCATTGACAGGACAGTGAATAGTAA :: Criterion not met
2) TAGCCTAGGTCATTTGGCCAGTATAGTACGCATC :: Criterion not met
3) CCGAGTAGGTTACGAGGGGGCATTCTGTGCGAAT :: Criterion met
4) CGAACTAGCTCACCAGGACAGTGAAGAGGTTGGA :: Criterion not met
5) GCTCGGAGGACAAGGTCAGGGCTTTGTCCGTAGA :: Criterion not met
6) CGAACTAGGTCACGAGGACAGTGAAGAGGTTGGA :: Criterion met
7) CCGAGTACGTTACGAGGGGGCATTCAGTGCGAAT :: Criterion not met
8) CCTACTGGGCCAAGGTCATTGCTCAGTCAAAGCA :: Criterion not met
9) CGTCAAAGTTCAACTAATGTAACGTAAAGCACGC :: Criterion not met
10) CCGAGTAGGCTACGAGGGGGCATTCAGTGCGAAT :: Criterion not met
11) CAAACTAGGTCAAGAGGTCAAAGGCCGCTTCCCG :: Criterion met
12) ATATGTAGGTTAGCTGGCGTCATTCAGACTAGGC :: Criterion met
13) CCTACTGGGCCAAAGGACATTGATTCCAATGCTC :: Criterion met
14) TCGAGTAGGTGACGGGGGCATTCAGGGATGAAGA :: Criterion met
15) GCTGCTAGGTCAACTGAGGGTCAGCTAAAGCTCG :: Criterion met
16) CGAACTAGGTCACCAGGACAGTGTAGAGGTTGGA :: Criterion met
17) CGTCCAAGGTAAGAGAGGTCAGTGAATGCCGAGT :: Criterion not met
18) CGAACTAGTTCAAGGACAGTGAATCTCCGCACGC :: Criterion not met
19) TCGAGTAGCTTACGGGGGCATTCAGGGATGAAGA :: Criterion not met
20) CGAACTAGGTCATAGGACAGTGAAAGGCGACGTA :: Criterion met
21) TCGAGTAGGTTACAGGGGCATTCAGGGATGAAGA :: Criterion not met
22) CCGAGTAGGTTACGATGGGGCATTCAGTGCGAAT :: Criterion met
23) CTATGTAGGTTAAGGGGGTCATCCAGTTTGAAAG :: Criterion met
24) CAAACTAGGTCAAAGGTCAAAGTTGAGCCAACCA :: Criterion met
25) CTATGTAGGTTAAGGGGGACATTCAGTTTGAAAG :: Criterion met
